IC50 reference
Biological target: KAT-6A (Homo sapiens (Human))
Sequence (Q92794 other isoform, or with tags, fused parts or gaps): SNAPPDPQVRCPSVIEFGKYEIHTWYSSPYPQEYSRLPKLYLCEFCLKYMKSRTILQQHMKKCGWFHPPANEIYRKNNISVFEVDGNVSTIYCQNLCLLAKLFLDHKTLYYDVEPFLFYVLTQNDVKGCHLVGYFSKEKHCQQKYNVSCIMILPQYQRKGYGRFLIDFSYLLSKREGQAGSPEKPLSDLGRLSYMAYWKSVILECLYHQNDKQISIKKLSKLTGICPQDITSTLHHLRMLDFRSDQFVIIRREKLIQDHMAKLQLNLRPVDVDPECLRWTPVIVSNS
Test: KAT-6A biochemical inhibition assay (SAMDI mass spectrometry)
Method: KAT-6A. Enzyme assay buffer was 50 mM Tris pH 8.0, 0.002% Tween20, 0.005% bovine skin gelatin, and 1 mM dithiothreitol (DTT). For determination of IC50 values, compounds were serially diluted with 2% (v/v) DMSO in the final reaction, pre-incubating each dilution of each compound with 40 μL of assay buffer containing KAT-6A enzyme (12.5 nM final concentration). 10 μL of assay buffer containing 1 μM peptide substrate and 1 μM acetyl coenzyme A (final concentrations) was added. […]

Example entries begin here.
Cn1cnc(-c2cc(Cl)c(F)c(C(=O)NNS(=O)(=O)CC(=O)N3CCCC3)c2)c1 = 10 to 50 µM
Cn1c(Cl)nc(-c2cc(Cl)c(F)c(C(=O)NNS(=O)(=O)C3CCOCC3)c2)c1Cl = 10 to 50 µM
Cn1cnc(-c2cc(Cl)c(F)c(C(=O)NNS(=O)(=O)C[C@@H]3CCC[C@@H](NC(=O)OC(C)(C)C)C3)c2)c1 = < 10 µM

For the compound CNC1CCC(CS(=O)(=O)NNC(=O)c2cc(-c3cn(C)cn3)cc(Cl)c2F)CC1 (stereo not drawn) , give its reported IC50.
10 to 50 µM

For the compound Cn1cnc(-c2cc(Cl)c(F)c(C(=O)NNS(=O)(=O)N3CCOCC3)c2)c1 , give its reported IC50.
10 to 50 µM

For the compound Cn1cnc(-c2cc(Cl)c(F)c(C(=O)NNS(=O)(=O)C[C@H]3C[C@H](NC(N)=O)C3)c2)c1 , give its reported IC50.
< 10 µM

For the compound CC(=O)N[C@H]1CC[C@H](CS(=O)(=O)NNC(=O)c2cc(-c3cn(C)cn3)cc(Cl)c2F)CC1 , give its reported IC50.
< 10 µM

For the compound COCCn1cnc(-c2cc(C)c(F)c(C(=O)NNS(=O)(=O)C3CCOCC3)c2)c1 , give its reported IC50.
> 100 µM

For the compound CCC(=O)NC1CCCC(CS(=O)(=O)NNC(=O)c2cc(-c3cn(C)cn3)cc(Cl)c2F)C1 (stereo not drawn) , give its reported IC50.
< 10 µM

For the compound Cn1cnc(-c2cc(Cl)c(F)c(C(=O)NNS(=O)(=O)c3cccc(OCc4ccccc4)c3F)c2)c1 , give its reported IC50.
< 10 µM

For the compound Cn1cnc(-c2cc(Cl)c(F)c(C(=O)NNS(=O)(=O)C[C@H]3C[C@H](N)C3)c2)c1 , give its reported IC50.
10 to 50 µM

For the compound CN(C)C(=O)CS(=O)(=O)NNC(=O)c1cc(-c2cn(C)cn2)cc(Cl)c1F , give its reported IC50.
10 to 50 µM

For the compound Cn1cnc(-c2cc(Cl)c(F)c(C(=O)NNS(=O)(=O)C[C@H]3C[C@H]4CC[C@@H]3O4)c2)c1 , give its reported IC50.
< 10 µM

For the compound Cn1cnc(-c2cc(Cl)c(F)c(C(=O)NNS(=O)(=O)C[C@@H]3CCN(C(=O)OC(C)(C)C)C3)c2)c1 , give its reported IC50.
< 10 µM

For the compound COCCN(Cc1ccc(OC)cc1)C(=O)N1CCCC(CS(=O)(=O)NNC(=O)c2cc(-c3cn(C)cn3)cc(Cl)c2F)C1 (stereo not drawn) , give its reported IC50.
10 to 50 µM
